- Set-up: species or system rats
- protocol_conditions: rat, in vivo, sc, 230 ug/kg;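 further: blood drawn at alternating time points, with three animals in each cohort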

{"molecule": "CTP-OXM-CTP: oxyntomodulin with one CTP on the amino terminus and one on the carboxy terminus, SEQ ID NO: 9 (protein, CTP-OXM-CTP) MATGSRTSLLLAFGLLCLPWLQEGSASSSSKAPPPSLPSPSRLPGPSDTPILPQHSQGTFTSDYSKYLDSRRAQDFVQWLMNTKRNRNNIASSSSKAPPPSLPSPSRLPGPSDTPILPQ", "CL [mL/min/kg]": 20.7328}
{"molecule": "OXM-CTP-CTP: oxyntomodulin with two CTPs in tandem on the carboxy terminus, SEQ ID NO: 21, expressed in CHO cells (protein, OXM-CTP-CTP) LEDMATGSRTSLLLAFGLLCLPWLQEGSAHSQGTFTSDYSKYLDSRRAQDFVQWLMNTKRNRNNIASSSSKAPPPSLPSPSRLPGPSDTPILPQSSSSKAPPPSLPSPSRLPGPSDTPILPQ", "CL [mL/min/kg]": 5.045}
{"molecule": "CTP-CTP-OXM: oxyntomodulin with two CTPs on the amino terminus, SEQ ID NO: 23 (protein, CTPx2-OXM) MATGSRTSLLLAFGLLCLPWLQEGSASSSSKAPPPSLPSPSRLPGPSDTPILPQSSSSKAPPPSLPSPSRLPGPSDTPILPQHSQGTFTSDYSKYLDSRRAQDFVQWLMNTKRNRNNIARSGCGRGTLGLMGLPFTARFP", "CL [mL/min/kg]": 27.2758}

Attribution: patent US9522945B2
